Measured values drawn from ChEMBL document CHEMBL2092589 for this set.

# pIC50 values compiled below
- experiment.notes: HARVARD: Cytotoxicity in HepG2 cell line
- run.parameters: human, HepG2 cells
pIC50: −log10 of the molar value. Structures can show the parent of a compound that is named as a salt.
measurement.kind: pIC50

molecule	value.prefix	readout.value
CCCC(C(=O)OCCN(CC)CC)(c1ccccc1)c1ccccc1 [PROADIFEN HYDROCHLORIDE]	=	4.24
CCCc1nc2c(C)cc(-c3nc4ccccc4n3C)cc2n1Cc1ccc(-c2ccccc2C(=O)O)cc1	<	5.00
CC[C@H]1CN2CCc3cc(OC)c(OC)cc3[C@@H]2C[C@@H]1C[C@H]1NCCc2cc(OC)c(OC)cc21 [EMETINE HYDROCHLORIDE]	=	5.00
CCCCCC[C@H]1C(=O)O[C@H](C)[C@H](NC(=O)c2cccc(NC=O)c2O)C(=O)O[C@@H](C)[C@@H]1OC(=O)CC(C)C [ANTIMYCIN A]	<	4.00
CC(=O)O[C@@H]1C[C@H]2C(C)(C)C(=O)C=C[C@]2(C)[C@H]2CC[C@@]3(C)[C@H](c4ccoc4)OC(=O)[C@H]4O[C@]43[C@@]21C [GEDUNIN]	<	4.00
COc1cc(NC(C)CCCN)c2ncccc2c1 (configuration not stated) [PRIMAQUINE PHOSPHATE]	<	4.00
CC[C@@H](C(=O)[C@@H](C)[C@@H](O)[C@H](C)[C@@H]1O[C@@H]([C@@H](CC)C(=O)O)CC[C@@H]1C)[C@H]1O[C@]2(C=C[C@@H](O)[C@]3(CC[C@@](C)([C@H]4CC[C@](O)(CC)[C@H](C)O4)O3)O2)[C@H](C)C[C@@H]1C [SALINOMYCIN SODIUM]	=	4.24
